Assay notes: Accelerated stability studies (PXRD physical form stability)
Type: physicochemical
Details: accelerated conditions 75% humidity and 40° C., one year, by PXRD

| Molecule | physical form stability |
| --- | --- |
| COC(=O)c1ccc(O)cc1.Cc1c2oc3c(C)ccc(C(=O)NC4C(=O)NC(C(C)C)C(=O)N5CCCC5C(=O)N(C)CC(=O)N(C)C(C(C)C)C(=O)OC4C)c3nc-2c(C(=O)NC2C(=O)NC(C(C)C)C(=O)N3CCCC3C(=O)N(C)CC(=O)N(C)C(C(C)C)C(=O)OC2C)c(N)c1=O (stereo not shown) | stable |
| Cc1c2oc3c(C)ccc(C(=O)NC4C(=O)NC(C(C)C)C(=O)N5CCCC5C(=O)N(C)CC(=O)N(C)C(C(C)C)C(=O)OC4C)c3nc-2c(C(=O)NC2C(=O)NC(C(C)C)C(=O)N3CCCC3C(=O)N(C)CC(=O)N(C)C(C(C)C)C(=O)OC2C)c(N)c1=O.O=C(O)c1ccccc1-c1ccccc1C(=O)O (stereo not shown) | stable |
| CCCOC(=O)c1ccc(O)cc1.Cc1c2oc3c(C)ccc(C(=O)NC4C(=O)NC(C(C)C)C(=O)N5CCCC5C(=O)N(C)CC(=O)N(C)C(C(C)C)C(=O)OC4C)c3nc-2c(C(=O)NC2C(=O)NC(C(C)C)C(=O)N3CCCC3C(=O)N(C)CC(=O)N(C)C(C(C)C)C(=O)OC2C)c(N)c1=O (stereo not shown) | stable |
